All values here come from paper PMC7285002.

test: Tissue distribution of unconjugated magnolol; format: in vivo; conditions: Sprague-Dawley (SD), rat, kidney; 1 h after oral 50 mg kg^−1, male SD rats; read-out: mean magnolol concentration, Kidneys
MEASURED_ENDPOINT: concentration at 1 h (ng/g)

>  <STRUCTURE_NOTATION>
C=CCc1ccc(O)c(-c2cc(CC=C)ccc2O)c1

>  <VALUE_REPORTED>
3740

$$$$

----------
experiment: Tissue distribution of unconjugated magnolol; format: in vivo; settings: Sprague-Dawley (SD), rat, liver; 1 h after oral 50 mg kg^−1, male SD rats; read-out: mean magnolol concentration, Liver
MEASURED_ENDPOINT: concentration at 1 h (ng/g)

>  <COMPOUND>
C=CCc1ccc(O)c(-c2cc(CC=C)ccc2O)c1 [Magnolol]

>  <VALUE_REPORTED>
790

$$$$
